The following are reported IC50 results, target or system BTK wildtype protein (Homo sapiens (Human)).

COc1ccc(F)cc1C(=O)NCc1ccc(-c2nn(C(C)C3CCCCN3C(=O)n3cncn3)c3ncnc(N)c23)cc1 (stereo not drawn) [Compound 304] | ≤ 1000 nM
COc1ccc(F)cc1C(=O)NCc1ccc(-c2nn(C(C)CCN(C)C(=O)n3cncn3)c3ncnc(N)c23)cc1 (stereo not drawn) [Compound 303] | ≤ 1000 nM
COc1ccc(F)cc1C(=O)NCc1ccc(-c2nn(CC3CCN3C(=O)n3cncn3)c(N)c2C(N)=O)cc1 (stereo not drawn) [Compound 145] | ≤ 1000 nM
CN(C(=O)n1cncn1)C1CCC2C(CNc3c(C(N)=O)c(-c4ccc(Oc5ccccc5)cc4)nn32)C1 (stereo not drawn) [Compound 131] | > 1000 nM
NC(=O)c1c(-c2ccc(Oc3ccccc3)cc2)nn2c1NCC[C@H]2[C@H]1CCCCN1C(=O)n1cncn1 [Compound 266] | ≤ 1000 nM
COc1ccc(F)cc1C(=O)NCc1ccc(-c2nn([C@H]3CCCC[C@@H](N(C)C(=O)n4cncn4)C3)c(N)c2C(N)=O)cc1 [Compound 222] | ≤ 1000 nM
COc1ccc(F)cc1C(=O)NCc1ccc(-c2nn(CC3COCCN3C(=O)n3cncn3)c3ncnc(N)c23)cc1 (stereo not drawn) [Compound 210] | > 1000 nM
COc1ccc(F)cc1C(=O)NCc1ccc(-c2nn(C(C)CN(C)C(=O)n3cncn3)c(N)c2C(N)=O)cc1 (stereo not drawn) [Compound 218] | ≤ 1000 nM

Record IC50 per entry; entries follow.
1. COc1ccc(F)cc1C(=O)NCc1ccc(-c2nn(C[C@@H]3CCN3C(=O)n3cncn3)c3ncnc(N)c23)cc1 [Compound 103]
2. CN(C(=O)n1cncn1)c1ccccc1C1CCNc2c(C(N)=O)c(-c3ccc(Oc4ccccc4)cc3)nn21 (stereo not drawn) [Compound 305]

≤ 1000 nM
> 1000 nM
